Experiment: chemical genetic growth profiling, strain panel (AID 1159580);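 note: tested at 20 µM; growth read once vehicle control cultures reached saturation at 30 °C; lower values mean less growth of the strain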
Details: S. cerevisiae deletion strains, growth OD, locus YNL183C, strain NPR1
In all, about 5,500 compounds went through this assay and about 2,000 (36%) were called active. Inconclusive results (about 18%) are left out. Cut-off read from the data, not from the text of the source: active = normalized growth mostly below about 0.91 (no sharp cut-off); inconclusive = no clear call, values can overlap the other calls; inactive = mostly above about 0.92. Some of the results follow.
Outcome codes: active, inactive

compound	assigned class
O=C(O)P(=O)(O)O	inactive
Cc1cc(C(=O)O/N=C(/N)c2ccc([N+](=O)[O-])o2)no1	inactive
Cc1nc(C(F)(F)F)c(C(=O)O/N=C(/N)c2ccc(Cl)cc2)s1	inactive
Nc1nc2ncc(CNc3ccc(C(=O)N[C@@H](CCC(=O)O)C(=O)O)cc3)nc2c(=O)[nH]1	inactive
Clc1ccc(-c2noc(CSC3=NCCN3)n2)cc1	inactive
OCC(S)CS (stereo unspecified)	inactive
CCOC(=O)c1ccc(N)cc1	inactive
O=C(O)CNCP(=O)(O)O	inactive
CCCCC(CC)CN=C(N)NC(N)=NCCCCCCN=C(N)NC(N)=NCC(CC)CCCC (stereo unspecified)	active
CCCC1c2ccsc2CCN1C(=S)Nc1ccc(Cl)cc1Cl (stereo unspecified)	inactive
CCn1cc(C(=O)O)c(=O)c2cnc(N3CCCC3)nc21	inactive
CCOC(=O)C1=C[C@]2(CC)CCCN3CCc4c(n1c1ccccc41)[C@@H]32	inactive
CSc1c(C#N)c(-c2ccc(Cl)cc2)nn1C(=O)c1ccccc1Cl	inactive
N#CC1=C(N)C(C#N)(C#N)C2(CCCCC2)C2CCCC=C12 (stereo unspecified)	inactive
O=C(NC(=O)c1c(F)cccc1F)Nc1cc(Cl)c(OC(F)(F)C(F)C(F)(F)F)cc1Cl (stereo unspecified)	inactive
CC1(C)C/C(=N/Nc2ccc(C(F)(F)F)cc2)c2cc(C(C)(C)C)c(O)c(O)c2O1	active
CC1(C)CC2C1CCC1(C)OC2(C)CCC1O (stereo unspecified)	inactive
COc1ccc(-c2cc(C(F)F)nn2-c2ccc(S(N)(=O)=O)cc2)cc1F	inactive
CC(=O)N[C@@H]1[C@@H](C(O)[C@H](O)CO)O[C@](O)(C(=O)O)C[C@@H]1O (stereo partly specified)	inactive
CC(C)(O)C#Cc1ccc(/C=N\Nc2c(Cl)cc(Cl)cc2Cl)cc1	inactive
CCOC(=O)C(C)(N)Cc1ccc(O)c(O)c1 (stereo unspecified)	inactive
COc1ccc(/C=C/C(=O)c2cc(O)ccc2O)cc1	active
CN(C)CCCO[C@H]1[C@@H](C(O)CO)OC2OC(C)(C)O[C@@H]21 (stereo partly specified)	inactive
CC1(C)C2CC(=O)O[C@@]3(C)C4=CC(=O)O[C@@H](c5ccoc5)[C@]4(C)CCC3[C@@]2(C)C=C[C@H]1O (stereo partly specified)	inactive
CC12CCC(CC1)C(C)(C)O2	inactive
C=CC1=C(C)/C(=C/c2[nH]c(Cc3[nH]c(/C=C4\NC(=O)C(C)=C4C=C)c(C)c3CCC(=O)O)c(CCC(=O)O)c2C)NC1=O	inactive
CCn1cc(C(=O)O)c(=O)c2cc3c(cc21)OCO3	inactive
CCn1cc(C(=O)O)c(=O)c2ccc(C)nc21	inactive
CC1(C)CC2C1CCC1(C)OC1CCC2(C)O (stereo unspecified)	inactive
C[C@](N)(Cc1ccc(O)c(O)c1)C(=O)O	inactive
Nc1nc2c(c(=O)[nH]1)N(C=O)C(CNc1ccc(C(=O)N[C@@H](CCC(=O)O)C(=O)O)cc1)CN2 (stereo partly specified)	inactive
COc1ccc(/C=C/C(=O)c2ccc(O)cc2O)cc1	active
CN(Cc1cc(Br)cc(Br)c1N)C1CCCCC1	inactive
NC(=O)c1ccc(N)nc1	inactive
CCOC(=O)NC(=S)NC12CC3CC(CC(C3)C1)C2	inactive
C#CCN(C)C(C)Cc1ccccc1 (stereo unspecified)	inactive
COc1cc(Cl)c(NS(=O)(=O)c2cc(Br)c(Br)s2)c(OC)c1	inactive
COc1ccc(/C=C/C(=O)O)cc1OC	inactive
Cc1onc(-c2ccccc2Cl)c1-c1nc2ccccc2c(=O)o1	inactive
C[C@@H]1CC2C3CCC4=CC(=O)C=C[C@]4(C)[C@@]3(F)[C@@H](O)C[C@]2(C)[C@@]1(O)C(=O)COP(=O)(O)O (stereo partly specified)	inactive
NC(=NC(=O)c1ccc(Cl)cc1)c1cccs1	inactive
CC[C@]12CCCN3CCc4c(n(c5ccccc45)[C@](O)(C(=O)OC)C1)[C@@H]32	inactive
COCCOc1ccccc1NC(=S)SCCSC(=S)Nc1ccccc1OCCOC	inactive
CC(=O)C(Sc1nc2ccccc2s1)C(C)=O	active
C[C@@H]1C[C@@H]([C@H](O)CC2CC(=O)NC(=O)C2)C(=O)[C@@H](C)C1	active
Cc1ccc(C(C)C)cc2c(C)ccc1-2	inactive
